# Tested System: human MAP4K4 kinase domain (Homo sapiens (Human), UniProt O95819)
# Sequence (O95819 25-289): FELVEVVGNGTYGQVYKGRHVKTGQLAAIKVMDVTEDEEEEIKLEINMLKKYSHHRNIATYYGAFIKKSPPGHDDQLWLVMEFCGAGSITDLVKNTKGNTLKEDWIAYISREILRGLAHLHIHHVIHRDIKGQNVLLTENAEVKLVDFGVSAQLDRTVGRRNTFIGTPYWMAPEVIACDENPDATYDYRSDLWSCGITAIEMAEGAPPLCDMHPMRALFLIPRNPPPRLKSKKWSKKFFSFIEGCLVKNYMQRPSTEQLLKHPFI
# Test Name: MAP4K4 kinase activity, CisBio HTRF Transcreener ADP assay
# Assay type: biochemical
# Experimental Context: ATP at Km (10 μM), 0.5 nM kinase domain, 2 h; read-out: MAP4K4
pIC50: −log10 of the molar value.
pIC50 for assorted compounds

Some compounds with known pIC50 results, for comparison:
CN1CCN(CCCOc2ccc(-c3cn(-c4ccccc4)c4nc[nH]c(=O)c34)cc2)CC1 [Ex-35]
≥ 7.00
C[C@H](O)COc1ccc(-c2cn(-c3ccccc3)c3c(=O)[nH]cnc23)cc1 [Ex-93]
< 6.00
O=c1[nH]cnc2c1c(-c1ccc(OCCCO)cc1)cn2-c1ccccc1 [Ex-36]
≥ 7.00
C[C@@H](O)COc1ccc(-c2cn(-c3ccccc3)c3c(=O)[nH]cnc23)cc1 [Ex-92]
6.00 to 7.00
CN(C)CC(=O)Nc1cccc(-c2cn(-c3ccccc3)c3nc[nH]c(=O)c23)c1 [Ex-24]
< 6.00
CC(C)(C)OC(=O)NCCOc1ccc(-c2cn(-c3ccccc3)c3nc[nH]c(=O)c23)cc1 [Ex-63]
6.00 to 7.00
O=c1[nH]cnc2c1c(-c1ccc(OCCO)cc1F)cn2-c1ccccc1 [Ex-56]
≥ 7.00
CCOC(=O)Cc1ccc(-c2cn(-c3ccccc3)c3nc[nH]c(=O)c23)cc1 [Ex-10]
≥ 7.00

// next item, pIC50 requested
# pIC50 (compound: NCCOc1ccc(-c2cn(-c3ccccc3)c3nc[nH]c(=O)c23)cc1 [Ex-78] ) is ≥ 7.00

The measurements presented in this section are drawn from patent US11795169B2.
